- ASSAY TARGET: recombinant human DAO (diamine oxidase) (Homo sapiens, UniProt P19801)
- Construct: purchased R&D systems
- Sequence (P19801 20-751): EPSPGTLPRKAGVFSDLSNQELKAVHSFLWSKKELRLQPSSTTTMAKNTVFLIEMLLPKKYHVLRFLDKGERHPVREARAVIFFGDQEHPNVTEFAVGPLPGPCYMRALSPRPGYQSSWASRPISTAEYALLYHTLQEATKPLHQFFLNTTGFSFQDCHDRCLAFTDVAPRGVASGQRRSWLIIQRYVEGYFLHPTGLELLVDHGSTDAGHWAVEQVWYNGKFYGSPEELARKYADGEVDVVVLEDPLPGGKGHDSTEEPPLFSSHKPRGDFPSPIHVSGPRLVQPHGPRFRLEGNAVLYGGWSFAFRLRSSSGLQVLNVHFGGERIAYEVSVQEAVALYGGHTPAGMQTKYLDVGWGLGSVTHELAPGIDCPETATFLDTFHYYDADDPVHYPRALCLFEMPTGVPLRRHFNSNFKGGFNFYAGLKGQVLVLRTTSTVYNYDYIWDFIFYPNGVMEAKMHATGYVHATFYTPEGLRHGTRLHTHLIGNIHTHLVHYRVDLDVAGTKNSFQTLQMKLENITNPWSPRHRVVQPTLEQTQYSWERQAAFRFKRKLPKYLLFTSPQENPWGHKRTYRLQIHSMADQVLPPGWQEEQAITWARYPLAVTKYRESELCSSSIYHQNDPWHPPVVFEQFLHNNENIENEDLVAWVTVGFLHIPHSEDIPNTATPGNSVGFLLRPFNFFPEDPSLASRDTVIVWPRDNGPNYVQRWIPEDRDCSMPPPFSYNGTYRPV
- ASSAY: Activity evaluation on recombinant human DAO (Amplex Red/HRP-coupled assay, 1 mM putrescine substrate)
- Assay type: biochemical
- CONDITION DESCRIPTION: 1 mM putrescine, read-out: Inhibitory Activity (IC50, nM) DAO
Structures can show the parent of a compound that is named as a salt.
MEASURED PARAMETER: IC50 (nM)
Your answer is read as nM, so omit the unit and give the number.

NCC(Cn1ncn(Cc2ccc(-c3ccc(C(F)(F)F)nc3)s2)c1=O)=C(F)F [Example 111, Trifluoroacetate] :: 7200
NCC(Cn1ncn(-c2cc(-c3ccc(N4CCNCC4)cc3)ccn2)c1=O)=C(F)F [Example 55, Ditrifluoroacetate] :: 620

Kindly indicate its recorded IC50. Item: Cc1cc(-c2ccnc(-n3cnn(CC(CN)=C(F)F)c3=O)c2)cc2c1NC(=O)CC2 [Example 59, Trifluoroacetate]
84

###

- ASSAY TARGET: recombinant human DAO (diamine oxidase) (Homo sapiens)
- Construct: purchased R&D systems
- ASSAY: Activity evaluation on recombinant human DAO (Amplex Red/HRP-coupled assay, 1 mM putrescine substrate)
- Assay type: biochemical
- CONDITION DESCRIPTION: 1 mM putrescine, read-out: Inhibitory Activity (IC50, nM) DAO
Where a name gives a salt, the structure may show the parent alone.
Each entry below lists one item and its recorded IC50 value.

Kindly indicate its recorded IC50. Item: COc1cc(-c2ccc(Cn3cnn(CC(CN)=C(F)F)c3=O)s2)cc(OC)c1OC [Example 105, Trifluoroacetate]
> 10000 nM

Kindly indicate its recorded IC50. Item: NCC(Cn1ncn(Cc2ccc(C#Cc3ccc4c(n3)OCCN4)s2)c1=O)=C(F)F [Example 168, Ditrifluoroacetate]
> 100000 nM

Kindly indicate its recorded IC50. Item: CS(=O)(=O)c1cccc(-c2ccc(Cn3cnn(CC(CN)=C(F)F)c3=O)s2)c1 [Example 102, Trifluoroacetate]
> 10000 nM

Kindly indicate its recorded IC50. Item: NCC(Cn1ncn(CCc2ccc(-c3ccc(C(F)(F)F)nc3)s2)c1=O)=C(F)F [Example 175, Trifluoroacetate]
250 nM

Kindly indicate its recorded IC50. Item: Cc1cc(-c2ccc(Cn3cnn(CC(CN)=C(F)F)c3=O)s2)cc2c1NC(=O)CC2 [Example 134, Trifluoroacetate]
> 100000 nM

Kindly indicate its recorded IC50. Item: CCn1cc(-c2ccc(-n3cnn(CC(CN)=C(F)F)c3=O)cc2F)cn1 [Example 30, Trifluoroacetate]
890 nM

Kindly indicate its recorded IC50. Item: Cn1c(-c2ccc(Cn3cnn(CC(CN)=C(F)F)c3=O)s2)cnc1Cl [Example 120, Trifluoroacetate]
> 100000 nM

###

- ASSAY TARGET: recombinant human VAP-1 (Homo sapiens)
- Construct: purchased R&D systems
- Sequence (Q16853 whole entry): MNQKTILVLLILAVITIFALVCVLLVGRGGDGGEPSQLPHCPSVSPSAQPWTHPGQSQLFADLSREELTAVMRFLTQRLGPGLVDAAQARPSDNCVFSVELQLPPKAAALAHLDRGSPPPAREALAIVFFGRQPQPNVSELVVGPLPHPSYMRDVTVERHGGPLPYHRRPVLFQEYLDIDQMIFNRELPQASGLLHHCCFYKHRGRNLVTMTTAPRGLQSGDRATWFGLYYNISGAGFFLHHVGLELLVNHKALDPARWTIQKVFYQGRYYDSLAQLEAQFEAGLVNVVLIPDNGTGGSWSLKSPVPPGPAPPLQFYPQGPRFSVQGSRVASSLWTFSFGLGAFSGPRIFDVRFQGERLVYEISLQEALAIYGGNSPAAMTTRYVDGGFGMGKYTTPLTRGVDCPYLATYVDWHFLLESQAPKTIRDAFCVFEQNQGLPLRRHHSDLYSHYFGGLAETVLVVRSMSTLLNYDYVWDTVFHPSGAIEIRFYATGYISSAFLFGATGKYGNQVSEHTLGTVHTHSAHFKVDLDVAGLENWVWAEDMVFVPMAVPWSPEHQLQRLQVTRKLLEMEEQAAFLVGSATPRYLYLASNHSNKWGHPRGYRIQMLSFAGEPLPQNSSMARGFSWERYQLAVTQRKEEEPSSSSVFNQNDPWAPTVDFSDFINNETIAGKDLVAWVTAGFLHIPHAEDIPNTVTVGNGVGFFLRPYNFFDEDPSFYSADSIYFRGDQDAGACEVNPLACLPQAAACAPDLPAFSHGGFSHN
- ASSAY: Activity evaluation on recombinant human VAP-1 (Amplex Red/HRP-coupled hydrogen peroxide assay, benzylamine substrate)
- Assay type: biochemical
- CONDITION DESCRIPTION: recombinant human VAP-1; 30 min preincubation at 37° C.; 1 mM benzylamine; read-out: Inhibitory Activity (IC50, nM) human VAP-1
- Protocol: The compounds according to the present technology were evaluated in terms of activity on recombinant human VAP-1 (R&D systems) by measuring the level of hydrogen peroxide in horseradish peroxidase (HRP)-coupled reaction using Amplex Red Hydrogen Peroxide Assay Kit (Molecular Probes, Invitrogen, USA). […] The inhibitory effect of the compounds was measured as a decrease (%) in the signal rate as compared to the control group without any inhibitor (only diluted DMSO). […]
Structures can show the parent of a compound that is named as a salt.
MEASURED PARAMETER: log10 of IC50 (log10 of the value in nM)
In our notation, the value equals log10 of IC50 in nM.

Cc1cc(-c2cc(-n3cnn(CC(CN)=C(F)F)c3=O)ccn2)cc2c1NC(=O)CC2 [Example 65, Trifluoroacetate] :: -0.52
NCC(Cn1ncn(CCc2ccc(-c3ccc(C(F)(F)F)nc3)s2)c1=O)=C(F)F [Example 175, Trifluoroacetate] :: -0.40
CS(=O)(=O)c1ccc(-c2cccc(-n3cnn(CC(CN)=C(F)F)c3=O)n2)cc1 [Example 46, Trifluoroacetate] :: -0.05
NCC(Cn1ncn(-c2cnc(Br)cn2)c1=O)=C(F)F [Example 16, Trifluoroacetate] :: 0.66
CN(C)c1ccc(-c2cccc(-n3cnn(CC(CN)=C(F)F)c3=O)n2)cn1 [Example 49, Trifluoroacetate] :: 0.20

Kindly indicate its recorded log10 of IC50. Item: Cc1cc(-c2ccc(S(C)(=O)=O)cc2)cnc1-n1cnn(CC(CN)=C(F)F)c1=O [Example 68, Trifluoroacetate]
-0.30

Kindly indicate its recorded log10 of IC50. Item: Cc1cc(-n2cnn(CC(CN)=C(F)F)c2=O)cnc1-c1cc(C)c2c(c1)CCC(=O)N2 [Example 80, Trifluoroacetate]
-0.40

Kindly indicate its recorded log10 of IC50. Item: NCC(Cn1ncn(Cc2ccc(OCc3ccccc3)cc2)c1=O)=C(F)F [Example 96, Trifluoroacetate]
1.11

Kindly indicate its recorded log10 of IC50. Item: CN(C)c1ccc(-c2cccc(-n3cnn(CC(CN)=C(F)F)c3=O)c2)cn1 [Example 20, Trifluoroacetate]
0.32

Kindly indicate its recorded log10 of IC50. Item: CCn1cc(-c2cc(-n3cnn(CC(CN)=C(F)F)c3=O)ccn2)cn1 [Example 67, Trifluoroacetate]
-0.05

Kindly indicate its recorded log10 of IC50. Item: CCn1cc(-c2ccc(-n3cnn(CC(CN)=C(F)F)c3=O)cc2F)cn1 [Example 30, Trifluoroacetate]
-0.22

Kindly indicate its recorded log10 of IC50. Item: NCC(Cn1ncn(-c2ncc(-c3ccc4c(c3)OCO4)cc2F)c1=O)=C(F)F [Example 85, Trifluoroacetate]
-0.70

Kindly indicate its recorded log10 of IC50. Item: CN(C)c1ccc(-c2ccnc(-n3cnn(CC(CN)=C(F)F)c3=O)c2)cn1 [Example 57, Trifluoroacetate]
-0.05

Kindly indicate its recorded log10 of IC50. Item: NCC(Cn1ncn(-c2cccc(-c3ccc4c(c3)OCO4)n2)c1=O)=C(F)F [Example 50, Trifluoroacetate]
0.18

Kindly indicate its recorded log10 of IC50. Item: NCC(Cn1ncn(-c2ccc(-c3ccc(N4CCNCC4)cc3)nc2)c1=O)=C(F)F [Example 39, Ditrifluoroacetate]
0.08

Kindly indicate its recorded log10 of IC50. Item: Cc1cc(-n2cnn(CC(CN)=C(F)F)c2=O)cnc1-c1ccc(C(F)(F)F)nc1 [Example 77, Trifluoroacetate]
0.00

Kindly indicate its recorded log10 of IC50. Item: CN(C)c1ccc(C#Cc2ccc(Cn3cnn(CC(CN)=C(F)F)c3=O)s2)cn1 [Example 162, Trifluoroacetate]
-0.15

Kindly indicate its recorded log10 of IC50. Item: NCC(Cn1ncn(-c2cc(Br)ccn2)c1=O)=C(F)F [Example 9, Trifluoroacetate]
0.54

Kindly indicate its recorded log10 of IC50. Item: NCC(Cn1ncn(-c2cc(-c3ccc4c(c3)OCO4)ccn2)c1=O)=C(F)F [Example 58, Trifluoroacetate]
0.34

Kindly indicate its recorded log10 of IC50. Item: Cc1cc(-c2ccc(Cn3cnn(CC(CN)=C(F)F)c3=O)s2)cc2ccc(=O)[nH]c12 [Example 135, Trifluoroacetate]
-0.40

Kindly indicate its recorded log10 of IC50. Item: NCC(Cn1ncn(-c2ccc(Br)c(F)c2)c1=O)=C(F)F [Example 4, Trifluoroacetate]
0.62

Kindly indicate its recorded log10 of IC50. Item: Cc1cc(-c2ccc(N(C)C)nc2)sc1Cn1cnn(CC(CN)=C(F)F)c1=O [Example 157, Trifluoroacetate]
0.36

Kindly indicate its recorded log10 of IC50. Item: NCC(Cn1ncn(-c2cccc(-c3ccc(N4CCNCC4)cc3)c2)c1=O)=C(F)F [Example 18, Ditrifluoroacetate]
1.18

Kindly indicate its recorded log10 of IC50. Item: CCn1cc(-c2cccc(-n3cnn(CC(CN)=C(F)F)c3=O)c2)cn1 [Example 23, Trifluoroacetate]
0.49

Kindly indicate its recorded log10 of IC50. Item: NCC(Cn1ncn(-c2ccc(-c3ccc(N4CCNCC4)cc3)cc2F)c1=O)=C(F)F [Example 32, Ditrifluoroacetate]
0.11

Kindly indicate its recorded log10 of IC50. Item: COCCNc1ncc(-c2ccc(Cn3cnn(CC(CN)=C(F)F)c3=O)s2)cn1 [Example 118, Trifluoroacetate]
0.54
